Kindly supply the reported solubility values for the records listed here.
PROTOCOL TEXT: Solubility in water using 0.1 M pH 7.4 phosphate buffer by LC-MS/MS method
Assay type: physicochemical
The response must be a number in µg/mL with no trailing unit.

Given CCCCC(CC)OC(=O)C1CCCC(NC(=O)NC23CC4CC(CC(C4)C2)C3)C1 (stereo unspecified) , state its recorded solubility.
1

CCOCCOCC(OC(=O)CCCNC(=O)NC12CC3CC(CC(C3)C1)C2)c1ccccc1 (stereo unspecified) , same question.
89

Entry CCCCCOC(=O)CCCNC(=O)NC12CC3CC(CC(C3)C1)C2 please
2

Could you do the same for CCOCCOCC(OC(=O)C1CCCC(NC(=O)NC23CC4CC(CC(C4)C2)C3)C1)c1ccccc1 (stereo unspecified) , please?
41

Next entry: CCOCCOCCOC(=O)CCCNC(=O)NC12CC3CC(CC(C3)C1)C2
878

Param item: CCCCC(CC)OC(=O)CCCNC(=O)NC12CC3CC(CC(C3)C1)C2 (stereo unspecified)
3

---

Kindly supply the reported IC50 values for the records listed here.
TARGET: Bifunctional epoxide hydrolase 2 (Homo sapiens, UniProt P34913)
Sequence (P34913 whole entry): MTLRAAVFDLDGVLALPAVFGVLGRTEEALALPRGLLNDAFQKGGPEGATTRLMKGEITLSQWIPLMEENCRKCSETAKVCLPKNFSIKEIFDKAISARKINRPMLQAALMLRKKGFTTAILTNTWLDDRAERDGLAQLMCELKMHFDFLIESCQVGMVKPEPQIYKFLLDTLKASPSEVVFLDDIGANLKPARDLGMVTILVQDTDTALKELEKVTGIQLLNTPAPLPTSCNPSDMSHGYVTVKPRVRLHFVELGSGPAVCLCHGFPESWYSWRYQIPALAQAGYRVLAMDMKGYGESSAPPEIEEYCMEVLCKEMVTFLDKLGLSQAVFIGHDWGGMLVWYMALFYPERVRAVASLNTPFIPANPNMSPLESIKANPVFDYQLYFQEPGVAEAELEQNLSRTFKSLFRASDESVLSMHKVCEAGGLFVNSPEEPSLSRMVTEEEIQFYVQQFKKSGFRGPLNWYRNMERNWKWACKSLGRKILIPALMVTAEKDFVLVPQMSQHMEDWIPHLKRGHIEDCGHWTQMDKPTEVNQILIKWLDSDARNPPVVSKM
PROTOCOL TEXT: Inhibition of human soluble epoxide hydrolase pre-incubated for 5 mins at 30 degC before CMNPC fluorescent substrate addition by fluorimetric assay
Kindly provide the numeric value in nM only, without the unit symbol.

# IC50 lookup, item CCOCCOCC(OC(=O)C1CCCC(NC(=O)NC23CC4CC(CC(C4)C2)C3)C1)c1ccccc1 (stereo unspecified)
9

Here is the next molecule: CCCCCOC(=O)CCCNC(=O)NC12CC3CC(CC(C3)C1)C2
10

CCOCCOCCOC(=O)CCCNC(=O)NC12CC3CC(CC(C3)C1)C2 , same question.
67

Repeat with CCOCCOCC(OC(=O)CCCNC(=O)NC12CC3CC(CC(C3)C1)C2)c1ccccc1 (stereo unspecified)
4

Continue with CCCCCOC(=O)C1CCCC(NC(=O)NC23CC4CC(CC(C4)C2)C3)C1 (stereo unspecified)
2

Can you handle CCCCC(C)OC(=O)CCCNC(=O)NC12CC3CC(CC(C3)C1)C2 (stereo unspecified) next?
4

Also CCCCC(C#N)OC(=O)CCCNC(=O)NC12CC3CC(CC(C3)C1)C2 (stereo unspecified) , if possible.
12

Now try O=C(O)CCCNC(=O)NC12CC3CC(CC(C3)C1)C2 .
684

Follow-up item: O=C(NC1CCCC(C(=O)O)C1)NC12CC3CC(CC(C3)C1)C2 (stereo unspecified)
1160

Can you handle CCCCC(CC)OC(=O)CCCNC(=O)NC12CC3CC(CC(C3)C1)C2 (stereo unspecified) next?
4

Item: CCCCC(CC)OC(=O)C1CCCC(NC(=O)NC23CC4CC(CC(C4)C2)C3)C1 (stereo unspecified)
3
